Cited source: patent US20200094031A1

Assay: Tacrolimus concentration in gastrointestinal tissue, luminal content and rectal contents, and tissue/plasma ratios (Example 13)
Assay type: in vivo, Yorkshire-Cross farm swine
Conditions: female, Yorkshire-Cross, pig, cecum tissue, other: intra-cecal, 0.09 mg/kg, cecum, Group 5 IC (0.09 mg/kg), swine; read-out: Ratio Tissue (mean) (ng/g)/Trough(12 hr) (ng/ml)
Description: The primary objective of this study was to study the pharmacokinetics of oral versus intra-cecal administration of tacrolimus in normal Yorkshire-Cross farm swine. […]
Value Kind: Kp at 12 h
Number only, please.

query: Provide Kp at 12 h value for the following compound: C=CC[C@@H]1/C=C(\C)C[C@H](C)C[C@H](OC)[C@H]2O[C@@](O)(C(=O)C(=O)N3CCCC[C@H]3C(=O)O[C@H](/C(C)=C/[C@@H]3CC[C@@H](O)[C@H](OC)C3)[C@H](C)[C@@H](O)CC1=O)[C@H](C)C[C@@H]2OC
result: 17.8
